meta.source: patent US20200038513A1

- methodSummary: Pharmacokinetics of intraperitoneal or intravenous injection in CD1 mice
- Assay type: in vivo
- protocolConditions: male, CD1, mouse, plasma, iv, 1 mg/kg, IV 1.0 mg/kg, CD1 mice plasma, 0.083 h; read-out: Conc. (ng/mL) Mouse 1
Examples of compounds with documented log10 of concentration at 0.083 h follow.
Reminder: these figures are log10 of reported concentration at 0.083 h, in ng/mL before transformation.

• CN(c1cccc(CNc2nc(Nc3ccc(OCCCOCCC(=O)NCCOc4cccc5c4C(=O)N(C4CCC(=O)NC4=O)C5=O)cc3)ncc2C(F)(F)F)c1)S(C)(=O)=O (centres unmarked) = 0.93

Moving on to another compound below.
q: Input Cc1ncsc1-c1ccc(CNC(=O)[C@@H]2C[C@@H](O)CN2C(=O)[C@@H](NC(=O)COCCOc2ccc(Nc3ncc(C(F)(F)F)c(NCc4cccc(N(C)S(C)(=O)=O)c4)n3)cc2)C(C)(C)C)cc1 , output reported log10 of concentration at 0.083 h.
a: 2.37
